Data provenance: patent US20090209578A1

- tested.system: HIV-1 fusion (gp160 induced cell-cell fusion; HeLa P4 cell line expressing CCR5 and CD4 / CHO-Tat10 cell line) (Homo sapiens, UniProt P51681)
- Sequence (P51681 whole entry, the tested form may be a part): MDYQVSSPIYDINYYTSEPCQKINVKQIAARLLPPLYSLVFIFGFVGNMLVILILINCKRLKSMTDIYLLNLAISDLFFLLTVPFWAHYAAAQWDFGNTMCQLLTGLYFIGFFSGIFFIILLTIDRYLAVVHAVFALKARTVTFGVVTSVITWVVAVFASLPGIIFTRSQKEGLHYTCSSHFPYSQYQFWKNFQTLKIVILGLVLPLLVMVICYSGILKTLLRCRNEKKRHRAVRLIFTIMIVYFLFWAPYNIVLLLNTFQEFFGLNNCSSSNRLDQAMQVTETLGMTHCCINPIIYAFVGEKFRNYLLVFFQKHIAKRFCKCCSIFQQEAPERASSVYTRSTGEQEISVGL
- test.details: gp160 induced cell-cell fusion assay
- Assay type: cell-based
- experimental.parameters: HeLa P4 / CHO-Tat10 cells, read-out: IC50
IC50 under 0.5 nM gets y, anything at or over 0.5 nM gets n.

# compound, assigned.label
data = [
    ("CC(=O)N1CCc2nc(C)n(C3CCN(C(C)C[C@H](NC(=O)C4CCC(F)(F)CC4)c4cccc(F)c4)CC3)c2C1 (single isomer, unassigned)", "y"),
    ("Cc1cc(C(C)C)n(C2CCN(C(C)C[C@H](NC(=O)C3CCC(F)(F)CC3)c3ccccc3)CC2)n1 (single isomer, unassigned) [Example 116]", "n"),
    ("CC(=O)N1CCc2nc(C)n(C3CCN(C(C)C[C@H](NC(=O)C4CCC4)c4cccc(F)c4)CC3)c2C1 (some centres unmarked)", "y"),
]

Lab note: IC50 threshold 0.5 nM. Does this compound come in strictly under it? Cc1nc2c(n1C1CCN(C(C)C[C@H](NC(=O)C(C)C)c3ccccc3)CC1)CN(C(=O)C(C)C)CC2 (single isomer, unassigned)
n

Would you kindly verify if IC50 of CC(=O)N1CCc2nc(C)n(C3CCN(C(C)C[C@H](NC(=O)C4CCC4(F)F)c4cccc(F)c4)CC3)c2C1 (some centres unmarked) is strictly less than 0.5 nM?
y

In plain terms, does CCCC(=O)N[C@@H](CC(C)N1CCC(n2c(C)nc3c2CN(C(C)=O)CC3)CC1)c1cccc(F)c1 (single isomer, unassigned) come in under 0.5 nM for IC50?
n
